Target: K-Ras G13C (Homo sapiens (Human), UniProt P01116+P62937, G13C)
Sequence (P01116-2 other isoform, or with tags, fused parts or gaps G13C): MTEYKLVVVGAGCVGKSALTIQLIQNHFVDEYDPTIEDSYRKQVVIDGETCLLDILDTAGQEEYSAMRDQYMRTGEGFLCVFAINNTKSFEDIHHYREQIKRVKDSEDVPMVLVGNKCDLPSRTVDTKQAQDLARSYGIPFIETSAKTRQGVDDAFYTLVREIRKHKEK
Sequence (P62937 whole entry): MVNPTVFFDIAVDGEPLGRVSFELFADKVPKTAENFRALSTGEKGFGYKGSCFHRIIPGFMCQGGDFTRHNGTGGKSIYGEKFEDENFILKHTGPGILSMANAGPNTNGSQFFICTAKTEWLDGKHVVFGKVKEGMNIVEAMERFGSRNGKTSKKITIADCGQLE
Test: Ras-Raf (BRAF RBD) disruption / FRET / MOA assay, KRAS G13C
Assay type: biochemical
Details: KRAS G13C; Ras-Raf disruption/FRET/MOA assay; read-out: IC50* KRAS G13C FRET data
Protocol: The purpose of this biochemical assay is to measure the ability of test compounds to facilitate ternary complex formation between a nucleotide-loaded Ras isoform and cyclophilin A; the resulting ternary complex disrupts binding to a BRAF^RBD construct, inhibiting Ras signaling through a RAF effector. Compound is present in plate wells as a 10-point 3-fold dilution series starting at a final concentration of 30 μM. […]
pIC50: −log10 of the molar value.
Would you kindly list pIC50 for each of these compounds?

I'm curious: which pIC50 was measured for C/C=C(\C#N)C(=O)N1CC[C@H](C(=O)N(C)[C@H](C(=O)N[C@H]2Cc3cc(O)cc(c3)-c3ccc4c(c3)c(c(-c3cccnc3COC)n4CC)CC(C)(C)COC(=O)[C@@H]3CCCN(N3)C2=O)C(C)C)C1 [Example A178] tested on K-Ras G13C (Homo sapiens (Human), UniProt P01116+P62937, G13C)?
7.00 to 8.00

Query pIC50 on K-Ras G13C (Homo sapiens (Human), UniProt P01116+P62937, G13C) for CO[C@@H](C)c1ncccc1-c1c2c3cc(ccc3n1CC(F)(F)F)-c1cccc(c1)C[C@H](NC(=O)[C@H](C(C)C)N1CC[C@]3(CCN(C(=O)C#CC(C)(C)N(C)C)C3)C1=O)C(=O)N1CCC[C@H](N1)C(=O)OCC(C)(C)C2 (atropisomer, axis not shown) [Example A689]
6.00 to 7.00
